Measurement parameters: in THF, 323.15 K

{"Smiles representation": "CN1CCN(c2c(F)cc3c(=O)c(C(=O)O)cn4c3c2OCN4C)CC1", "solubility (mole fraction)": 0.00113}

###

Measurement parameters: in n-propanol, 313.15 K
Measured endpoint: solubility (mole fraction)

{"Smiles representation": "CN1CCN(c2c(F)cc3c(=O)c(C(=O)O)cn4c3c2OCN4C)CC1", "Recorded measurement": 0.000253}

###

Measurement parameters: in tert-amyl alcohol, 323.15 K

{"Smiles representation": "CN1CCN(c2c(F)cc3c(=O)c(C(=O)O)cn4c3c2OCN4C)CC1", "solubility (mole fraction)": 0.00029}

###

Measurement parameters: in 1,4-dioxane, 313.15 K

{"Smiles representation": "CN1CCN(c2c(F)cc3c(=O)c(C(=O)O)cn4c3c2OCN4C)CC1", "solubility (mole fraction)": 0.00028}

###

Measurement parameters: in ethyl acetate, 288.15 K
Measured endpoint: solubility (mole fraction)

{"Smiles representation": "CN1CCN(c2c(F)cc3c(=O)c(C(=O)O)cn4c3c2OCN4C)CC1", "Recorded measurement": 0.000172}

###

Measurement parameters: in tert-amyl alcohol, 288.15 K

{"Smiles representation": "CN1CCN(c2c(F)cc3c(=O)c(C(=O)O)cn4c3c2OCN4C)CC1", "solubility (mole fraction)": "9.12e-05"}

###

Measurement parameters: in methanol, 303.15 K
Measured endpoint: solubility (mole fraction)

{"Smiles representation": "CN1CCN(c2c(F)cc3c(=O)c(C(=O)O)cn4c3c2OCN4C)CC1", "Recorded measurement": 0.000249}

###

Measurement parameters: in ethyl acetate, 308.15 K
Measured endpoint: solubility (mole fraction)

{"Smiles representation": "CN1CCN(c2c(F)cc3c(=O)c(C(=O)O)cn4c3c2OCN4C)CC1", "Measured endpoint": "solubility (mole fraction)", "Recorded measurement": 0.000288}

###

Measurement parameters: in ethanol, 303.15 K
Measured endpoint: solubility (mole fraction)

{"Smiles representation": "CN1CCN(c2c(F)cc3c(=O)c(C(=O)O)cn4c3c2OCN4C)CC1", "Recorded measurement": 0.000144}

###

Measurement parameters: in n-butanol, 283.15 K
Measured endpoint: solubility (mole fraction)

{"Smiles representation": "CN1CCN(c2c(F)cc3c(=O)c(C(=O)O)cn4c3c2OCN4C)CC1", "Measured endpoint": "solubility (mole fraction)", "Recorded measurement": "8.77e-05"}

###

Measurement parameters: in acetone, 288.15 K

{"Smiles representation": "CN1CCN(c2c(F)cc3c(=O)c(C(=O)O)cn4c3c2OCN4C)CC1", "solubility (mole fraction)": 0.000266}

###

Measurement parameters: in toluene, 323.15 K

{"Smiles representation": "CN1CCN(c2c(F)cc3c(=O)c(C(=O)O)cn4c3c2OCN4C)CC1", "solubility (mole fraction)": 0.00018}

###

Measurement parameters: in 1,4-dioxane, 328.15 K
Measured endpoint: solubility (mole fraction)

{"Smiles representation": "CN1CCN(c2c(F)cc3c(=O)c(C(=O)O)cn4c3c2OCN4C)CC1", "Recorded measurement": 0.000512}

###

Measurement parameters: in ethyl acetate, 313.15 K

{"Smiles representation": "CN1CCN(c2c(F)cc3c(=O)c(C(=O)O)cn4c3c2OCN4C)CC1", "solubility (mole fraction)": 0.000326}

###

Measurement parameters: in toluene, 288.15 K

{"Smiles representation": "CN1CCN(c2c(F)cc3c(=O)c(C(=O)O)cn4c3c2OCN4C)CC1", "solubility (mole fraction)": "6.13e-05"}

###

Measurement parameters: in ethanol, 308.15 K
Measured endpoint: solubility (mole fraction)

{"Smiles representation": "CN1CCN(c2c(F)cc3c(=O)c(C(=O)O)cn4c3c2OCN4C)CC1", "Recorded measurement": 0.000175}

###

Measurement parameters: in acetonitrile, 308.15 K

{"Smiles representation": "CN1CCN(c2c(F)cc3c(=O)c(C(=O)O)cn4c3c2OCN4C)CC1", "solubility (mole fraction)": 0.000298}

###

Measurement parameters: in THF, 298.15 K

{"Smiles representation": "CN1CCN(c2c(F)cc3c(=O)c(C(=O)O)cn4c3c2OCN4C)CC1", "solubility (mole fraction)": 0.000591}

###

Measurement parameters: in n-butanol, 303.15 K

{"Smiles representation": "CN1CCN(c2c(F)cc3c(=O)c(C(=O)O)cn4c3c2OCN4C)CC1", "solubility (mole fraction)": 0.000169}

###

Measurement parameters: in n-propanol, 318.15 K
Measured endpoint: solubility (mole fraction)

{"Smiles representation": "CN1CCN(c2c(F)cc3c(=O)c(C(=O)O)cn4c3c2OCN4C)CC1", "Recorded measurement": 0.000315}

###

Measurement parameters: in n-butanol, 288.15 K

{"Smiles representation": "CN1CCN(c2c(F)cc3c(=O)c(C(=O)O)cn4c3c2OCN4C)CC1", "solubility (mole fraction)": 0.0001}

###

Measurement parameters: in n-propanol, 283.15 K

{"Smiles representation": "CN1CCN(c2c(F)cc3c(=O)c(C(=O)O)cn4c3c2OCN4C)CC1", "solubility (mole fraction)": "8.29e-05"}

###

Measurement parameters: in THF, 313.15 K

{"Smiles representation": "CN1CCN(c2c(F)cc3c(=O)c(C(=O)O)cn4c3c2OCN4C)CC1", "solubility (mole fraction)": 0.000887}

###

Measurement parameters: in THF, 303.15 K

{"Smiles representation": "CN1CCN(c2c(F)cc3c(=O)c(C(=O)O)cn4c3c2OCN4C)CC1", "solubility (mole fraction)": 0.00068}

###

Measurement parameters: in ethanol, 298.15 K

{"Smiles representation": "CN1CCN(c2c(F)cc3c(=O)c(C(=O)O)cn4c3c2OCN4C)CC1", "solubility (mole fraction)": 0.000117}

###

Measurement parameters: in acetonitrile, 288.15 K

{"Smiles representation": "CN1CCN(c2c(F)cc3c(=O)c(C(=O)O)cn4c3c2OCN4C)CC1", "solubility (mole fraction)": 0.000147}

###

Measurement parameters: in 1,4-dioxane, 288.15 K
Measured endpoint: solubility (mole fraction)

{"Smiles representation": "CN1CCN(c2c(F)cc3c(=O)c(C(=O)O)cn4c3c2OCN4C)CC1", "Measured endpoint": "solubility (mole fraction)", "Recorded measurement": 0.000114}

###

Measurement parameters: in 1,4-dioxane, 303.15 K
Measured endpoint: solubility (mole fraction)

{"Smiles representation": "CN1CCN(c2c(F)cc3c(=O)c(C(=O)O)cn4c3c2OCN4C)CC1", "Recorded measurement": 0.000188}

###

Measurement parameters: in methanol, 323.15 K
Measured endpoint: solubility (mole fraction)

{"Smiles representation": "CN1CCN(c2c(F)cc3c(=O)c(C(=O)O)cn4c3c2OCN4C)CC1", "Recorded measurement": 0.000521}

###

Measurement parameters: in acetone, 318.15 K

{"Smiles representation": "CN1CCN(c2c(F)cc3c(=O)c(C(=O)O)cn4c3c2OCN4C)CC1", "solubility (mole fraction)": 0.000678}

###

Measurement parameters: in acetonitrile, 303.15 K

{"Smiles representation": "CN1CCN(c2c(F)cc3c(=O)c(C(=O)O)cn4c3c2OCN4C)CC1", "solubility (mole fraction)": 0.00025}

###

Measurement parameters: in n-propanol, 298.15 K
Measured endpoint: solubility (mole fraction)

{"Smiles representation": "CN1CCN(c2c(F)cc3c(=O)c(C(=O)O)cn4c3c2OCN4C)CC1", "Recorded measurement": 0.000136}

###

Measurement parameters: in n-butanol, 308.15 K

{"Smiles representation": "CN1CCN(c2c(F)cc3c(=O)c(C(=O)O)cn4c3c2OCN4C)CC1", "solubility (mole fraction)": 0.000204}

###

Measurement parameters: in n-propanol, 288.15 K

{"Smiles representation": "CN1CCN(c2c(F)cc3c(=O)c(C(=O)O)cn4c3c2OCN4C)CC1", "solubility (mole fraction)": "9.58e-05"}

###

Measurement parameters: in methanol, 283.15 K
Measured endpoint: solubility (mole fraction)

{"Smiles representation": "CN1CCN(c2c(F)cc3c(=O)c(C(=O)O)cn4c3c2OCN4C)CC1", "Recorded measurement": 0.000127}

###

Measurement parameters: in 1,4-dioxane, 308.15 K
Measured endpoint: solubility (mole fraction)

{"Smiles representation": "CN1CCN(c2c(F)cc3c(=O)c(C(=O)O)cn4c3c2OCN4C)CC1", "Measured endpoint": "solubility (mole fraction)", "Recorded measurement": 0.00023}

###

Measurement parameters: in isopropanol, 323.15 K
Measured endpoint: solubility (mole fraction)

{"Smiles representation": "CN1CCN(c2c(F)cc3c(=O)c(C(=O)O)cn4c3c2OCN4C)CC1", "Recorded measurement": 0.000259}

###

Measurement parameters: in isopropanol, 308.15 K

{"Smiles representation": "CN1CCN(c2c(F)cc3c(=O)c(C(=O)O)cn4c3c2OCN4C)CC1", "solubility (mole fraction)": 0.00013}
